molecular target: AKT1 (Homo sapiens, UniProt P31749); test: FABS-NMR screening (3-FABS, 19F-labelled AKTide-like substrate) on AKT-1; type: biochemical; set-up: The active human Ser-Thr protein kinase AKT-1 Full Length was expressed as GST fusion protein; GST (cleaved yes); made in house; host or cells: insect cells; conditions: 25 nM protein, 30 µM substrate, 1.5 mM ATP; read-out: AKT1 IC50 FABS NMR assay
Sequence (P31749 whole entry, the tested form may be a part): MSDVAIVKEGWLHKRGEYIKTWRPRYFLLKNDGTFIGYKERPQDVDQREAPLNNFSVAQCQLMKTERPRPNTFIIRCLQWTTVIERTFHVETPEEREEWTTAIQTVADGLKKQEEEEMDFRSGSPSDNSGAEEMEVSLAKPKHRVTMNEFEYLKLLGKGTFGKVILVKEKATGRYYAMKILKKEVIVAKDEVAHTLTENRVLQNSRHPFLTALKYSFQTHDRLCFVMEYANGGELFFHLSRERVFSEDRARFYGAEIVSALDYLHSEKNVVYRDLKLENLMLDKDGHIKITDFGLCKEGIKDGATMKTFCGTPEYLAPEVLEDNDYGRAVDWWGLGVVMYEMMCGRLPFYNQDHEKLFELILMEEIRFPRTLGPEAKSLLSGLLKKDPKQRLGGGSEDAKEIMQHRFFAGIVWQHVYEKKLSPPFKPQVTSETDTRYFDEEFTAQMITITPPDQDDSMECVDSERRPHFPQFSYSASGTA
Reported Endpoint: IC50 (nM)
Write the number in nM without appending the unit.

Compound	Unit Spec	IC50
NC[C@H](Cc1ccccc1)NC(=O)/C=C/c1n[nH]c2ncccc12 [Compound 1, tris(trifluoroacetate)]	nM	62

In the following, a different compound is considered.
Problem: Request the reported IC50 associated with CN1CCN(C[C@@H](NC(=O)/C(=C/c2n[nH]c3ncccc23)c2cn(C)c3ccc(Br)cc23)c2ccccc2)CC1 [Compound 10]
Result: 62

====

molecular target: UniProt:Q9Y243; test: Biochemical assay for inhibitors of AKT3 kinase activity (33P trans-phosphorylation, Dowex resin)
Reported Endpoint: pIC50
// pIC50 is dimensionless: -log10 of concentration (M)

Problem: Request the reported pIC50 associated with NC[C@H](Cc1ccccc1)NC(=O)/C=C/c1n[nH]c2ncccc12 [Compound 1, tris(trifluoroacetate)]
Result: 7.72

====

target: AKT3 (Homo sapiens, UniProt Q9Y243); test: Biochemical assay for inhibitors of AKT3 kinase activity (33P trans-phosphorylation, Dowex resin); details: 1 nM enzyme, 180 microM ATP, 28.5 microM peptide substrate; read-out: AKT3 IC50 Biochemical assay
Sequence (Q9Y243 2-479): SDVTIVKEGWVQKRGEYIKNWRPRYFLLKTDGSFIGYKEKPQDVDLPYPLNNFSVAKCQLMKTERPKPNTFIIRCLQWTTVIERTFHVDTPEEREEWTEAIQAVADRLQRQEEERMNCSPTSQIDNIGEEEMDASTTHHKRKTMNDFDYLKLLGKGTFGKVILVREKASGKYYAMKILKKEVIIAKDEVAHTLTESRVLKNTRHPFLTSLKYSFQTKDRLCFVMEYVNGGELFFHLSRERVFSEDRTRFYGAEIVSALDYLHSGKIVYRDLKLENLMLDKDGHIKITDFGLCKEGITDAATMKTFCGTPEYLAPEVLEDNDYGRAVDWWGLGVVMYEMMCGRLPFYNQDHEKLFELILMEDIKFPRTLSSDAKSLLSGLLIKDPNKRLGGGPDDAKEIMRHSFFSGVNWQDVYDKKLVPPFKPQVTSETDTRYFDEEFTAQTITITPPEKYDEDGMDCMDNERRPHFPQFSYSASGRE
Reported Endpoint: IC50 (nM)
Write the number in nM without appending the unit.

Problem: Checklist item: IC50 tested on AKT3 (Homo sapiens, UniProt Q9Y243), entry CN1CCN(C[C@@H](NC(=O)/C(=C/c2n[nH]c3ncccc23)c2cn(C)c3ccc(Br)cc23)c2ccccc2)CC1 , value?
Result: 108

====

molecular target: AKT1 (Homo sapiens, UniProt P31749); assay: Biochemical assay for inhibitors of AKT1 kinase activity (33P trans-phosphorylation, Dowex resin); set-up: GST (N); made in house; details: 5 nM enzyme, 132 microM ATP, 30 microM peptide substrate, 60 minutes at room temperature
Reported Endpoint: IC50 (nM)
Write the number in nM without appending the unit.

Compound	Reported Endpoint	Unit Spec	Observed Measurement
NC[C@H](Cc1ccccc1)NC(=O)/C=C/c1n[nH]c2ncccc12 [Compound 1, tris(trifluoroacetate)]	IC50	nM	17

In the following, a different compound is considered.
Problem: Checklist item: IC50 tested on AKT1 (Homo sapiens, UniProt P31749), entry CN1CCN(C[C@@H](NC(=O)/C(=C/c2n[nH]c3ncccc23)c2cn(C)c3ccc(Br)cc23)c2ccccc2)CC1 [Compound 10] , value?
Result: 149

====

molecular target: PKAα (Homo sapiens, UniProt P17612); construct: polyHis; made in house; host or cells: E. coli; assay: FABS-NMR screening (3-FABS, 19F-labelled AKTide-like substrate) on PKA; format: biochemical; conditions: 25 nM protein, 30 µM substrate, 150 µM ATP
Reported Endpoint: IC50 (nM)
Write the number in nM without appending the unit.

Problem: Request the reported IC50 associated with NC[C@H](Cc1ccccc1)NC(=O)/C=C/c1n[nH]c2ncccc12 [Compound 1, tris(trifluoroacetate)]
Result: 25

====

biological target: AKT2 (Homo sapiens)
Sequence (P31751 whole entry, species assumed): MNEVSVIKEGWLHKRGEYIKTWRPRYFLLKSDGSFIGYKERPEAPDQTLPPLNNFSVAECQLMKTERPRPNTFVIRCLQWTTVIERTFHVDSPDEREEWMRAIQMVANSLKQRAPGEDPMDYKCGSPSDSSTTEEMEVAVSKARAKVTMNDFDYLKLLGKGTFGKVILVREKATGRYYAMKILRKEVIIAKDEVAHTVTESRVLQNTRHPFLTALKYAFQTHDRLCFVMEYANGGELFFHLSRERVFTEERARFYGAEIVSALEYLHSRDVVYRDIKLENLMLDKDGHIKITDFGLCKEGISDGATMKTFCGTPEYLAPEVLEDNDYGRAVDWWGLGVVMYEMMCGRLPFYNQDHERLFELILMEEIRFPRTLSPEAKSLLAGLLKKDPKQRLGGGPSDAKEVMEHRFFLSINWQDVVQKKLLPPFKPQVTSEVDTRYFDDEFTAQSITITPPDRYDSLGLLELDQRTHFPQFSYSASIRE
Reported Endpoint: pIC50
// pIC50 is dimensionless: -log10 of concentration (M)

Problem: Request the reported pIC50 associated with NC[C@H](Cc1ccccc1)NC(=O)/C=C/c1n[nH]c2ncccc12 [Compound 1, tris(trifluoroacetate)]
Result: 7.04
